# Tested on: AMBEL (Ragweed, Common)
# Assay Comment: Preemergence herbicidal evaluation
# Type: in vivo, Ambrosia artemisifolia
# Conditions Used: rate 0.2500 kg/ha; rated 4-5 weeks after treatment
Recorded Preemergence herbicidal rating AMBEL by entry

>  <Compound>
C[C@@H](C(=O)OC(C)(C)C)N1C(=O)CSC1=Nc1cc(-n2c(=O)cc(C(F)(F)F)n(C)c2=O)c(F)cc1Cl

>  <Preemergence herbicidal rating AMBEL>
7.0

$$$$
>  <Compound>
COC(=O)C(C)OC(=O)CN1C(=O)CSC1=Nc1cc(-n2c(=O)cc(C(F)(F)F)n(C)c2=O)c(F)cc1Cl (stereo not drawn)

>  <Preemergence herbicidal rating AMBEL>
1.0

$$$$
>  <Compound>
C[C@H](C(=O)O)N1C(=O)CSC1=Nc1cc(-n2c(=O)cc(C(F)(F)F)n(C)c2=O)c(F)cc1Cl

>  <Preemergence herbicidal rating AMBEL>
9.0

$$$$
>  <Compound>
C#CCOC(=O)CC1SC(=Nc2cc(-n3c(=O)cc(C(F)(F)F)n(C)c3=O)c(F)cc2Cl)N(CC=C)C1=O (stereo not drawn)

>  <Preemergence herbicidal rating AMBEL>
7.0

$$$$
>  <Compound>
CC(C)C[C@@H](C(=O)O)N1C(=O)CSC1=Nc1cc(-n2c(=O)cc(C(F)(F)F)n(C)c2=O)c(F)cc1Cl

>  <Preemergence herbicidal rating AMBEL>
9.0

$$$$
>  <Compound>
COC(=O)[C@@H](Cc1ccccc1)N1C(=O)CSC1=Nc1cc(-n2c(=O)cc(C(F)(F)F)n(C)c2=O)c(F)cc1Cl

>  <Preemergence herbicidal rating AMBEL>
9.0

$$$$
